- ASSAY SYSTEM: Progesterone receptor (Homo sapiens)
- Sequence (whole entry): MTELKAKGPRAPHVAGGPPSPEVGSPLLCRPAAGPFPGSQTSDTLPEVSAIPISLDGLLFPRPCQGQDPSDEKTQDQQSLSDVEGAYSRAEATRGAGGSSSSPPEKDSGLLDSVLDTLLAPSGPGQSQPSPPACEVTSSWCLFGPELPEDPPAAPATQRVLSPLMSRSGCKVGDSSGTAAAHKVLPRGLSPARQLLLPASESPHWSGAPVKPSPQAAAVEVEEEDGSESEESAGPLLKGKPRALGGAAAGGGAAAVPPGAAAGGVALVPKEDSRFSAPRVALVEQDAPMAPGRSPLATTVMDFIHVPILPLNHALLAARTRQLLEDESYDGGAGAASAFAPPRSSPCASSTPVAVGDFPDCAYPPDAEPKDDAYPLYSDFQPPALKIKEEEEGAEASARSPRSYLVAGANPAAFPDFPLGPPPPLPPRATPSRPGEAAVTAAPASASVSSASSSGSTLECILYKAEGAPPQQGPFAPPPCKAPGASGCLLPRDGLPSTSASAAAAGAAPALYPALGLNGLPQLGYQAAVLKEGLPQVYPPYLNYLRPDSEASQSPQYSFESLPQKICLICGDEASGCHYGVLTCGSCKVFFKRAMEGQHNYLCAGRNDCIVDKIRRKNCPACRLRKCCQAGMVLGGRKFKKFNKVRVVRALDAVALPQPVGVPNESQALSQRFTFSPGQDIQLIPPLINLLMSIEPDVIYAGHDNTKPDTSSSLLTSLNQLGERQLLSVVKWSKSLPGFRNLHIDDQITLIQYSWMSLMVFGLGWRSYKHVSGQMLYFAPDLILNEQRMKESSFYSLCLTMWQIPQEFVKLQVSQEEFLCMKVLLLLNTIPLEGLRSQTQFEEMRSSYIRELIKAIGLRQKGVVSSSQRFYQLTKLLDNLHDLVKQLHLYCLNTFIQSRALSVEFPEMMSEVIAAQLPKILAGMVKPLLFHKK
- METHOD NOTES: Agonist activity at human progesterone receptor relative to progesterone
- Format: functional
EXPERIMENTAL ENDPOINT: Efficacy (%)

Before answering, review these 2 worked examples.
query: Would you kindly share the measured Efficacy for CC1=CC(C)(C)Nc2ccc3c(c21)[C@H]([C@H]1CCCC(C)=C1C)Oc1c(F)cc(F)cc1-3 (racemic) ?
result: 97

query: Would you kindly share the measured Efficacy for CC(=O)O[C@]1(C(C)=O)CC[C@H]2[C@@H]3C[C@H](C)C4=CC(=O)CC[C@]4(C)[C@H]3CC[C@@]21C ?
result: 98

a: CC1=C[C@@H]([C@@H]2Oc3c(F)cc(F)cc3-c3ccc4c(c32)C(C)=CC(C)(C)N4)CCC1 (racemic)
b: CC1=C[C@H]([C@@H]2Oc3c(F)cc(F)cc3-c3ccc4c(c32)C(C)=CC(C)(C)N4)CCC1 (racemic)
query: Hi, I'm comparing two records. Which one has the lower Efficacy, a or b ? Your choice should be expressed through its label.
result: b
(b: 100%, a: 162%)
